Hey, just so you know, these numbers are from ChEMBL document CHEMBL1268874.

Test system: Bacillus subtilis
assay protocol: Antibacterial activity against Bacillus subtilis BD54 after 16 to 20 hrs by broth microdilution method
Format: functional
assay setup: Bacillus subtilis, BD54; read-out: MIC
quantity kind: MIC

- molecule: "CC(C)C(O)C(=O)Cc1c[nH]c2ccccc12 (single isomer, unassigned; (-))"
  MIC: "> 80 µg/mL"
- molecule: "CC(=O)OC(Cc1c[nH]c2ccccc12)C(=O)C(C)C (stereo not given)"
  MIC: "> 80 µg/mL"
- molecule: "O=C(O)c1cn(C2CC2)c2cc(N3CCNCC3)c(F)cc2c1=O"
  MIC: "0.078 µg/mL"
- molecule: "CC(C)C(=O)C(O)Cc1c[nH]c2ccccc12 (single isomer, unassigned; (+))"
  MIC: "> 80 µg/mL"

Lab note: next molecule to report on.
**Q:** Identify measured MIC obtained with Bacillus subtilis for CC(=O)OC(C(=O)Cc1c[nH]c2ccccc12)C(C)C (stereo not given) .
**A:** > 80 µg/mL

###

Test system: Stenotrophomonas maltophilia
assay protocol: Antibacterial activity against Stenotrophomonas maltophilia ATCC 13637 after 16 to 20 hrs by broth microdilution method
Assay type: functional
quantity kind: MIC

These recorded examples may help you get a feel for the data.
- molecule: "CC(=O)OC(C(=O)Cc1c[nH]c2ccccc12)C(C)C (stereo not given)"
  MIC: "> 80 µg/mL"
- molecule: "CC(C)C(O)C(=O)Cc1c[nH]c2ccccc12 (single isomer, unassigned; (-))"
  MIC: "> 80 µg/mL"
- molecule: "O=C(O)c1cn(C2CC2)c2cc(N3CCNCC3)c(F)cc2c1=O [CIPROFLOXACIN]"
  MIC: "0.313 µg/mL"
- molecule: "CC(C)C(=O)C(O)Cc1c[nH]c2ccccc12 (single isomer, unassigned; (+))"
  MIC: "> 80 µg/mL"

# input for lookup
**Q:** Using the record for CC(=O)OC(Cc1c[nH]c2ccccc12)C(=O)C(C)C (stereo not given) , state its measured MIC.
**A:** > 80 µg/mL
